- MEASUREMENT TARGET: MERTK (UniProt Q12866)
- Sequence (Q12866 whole entry, looked up): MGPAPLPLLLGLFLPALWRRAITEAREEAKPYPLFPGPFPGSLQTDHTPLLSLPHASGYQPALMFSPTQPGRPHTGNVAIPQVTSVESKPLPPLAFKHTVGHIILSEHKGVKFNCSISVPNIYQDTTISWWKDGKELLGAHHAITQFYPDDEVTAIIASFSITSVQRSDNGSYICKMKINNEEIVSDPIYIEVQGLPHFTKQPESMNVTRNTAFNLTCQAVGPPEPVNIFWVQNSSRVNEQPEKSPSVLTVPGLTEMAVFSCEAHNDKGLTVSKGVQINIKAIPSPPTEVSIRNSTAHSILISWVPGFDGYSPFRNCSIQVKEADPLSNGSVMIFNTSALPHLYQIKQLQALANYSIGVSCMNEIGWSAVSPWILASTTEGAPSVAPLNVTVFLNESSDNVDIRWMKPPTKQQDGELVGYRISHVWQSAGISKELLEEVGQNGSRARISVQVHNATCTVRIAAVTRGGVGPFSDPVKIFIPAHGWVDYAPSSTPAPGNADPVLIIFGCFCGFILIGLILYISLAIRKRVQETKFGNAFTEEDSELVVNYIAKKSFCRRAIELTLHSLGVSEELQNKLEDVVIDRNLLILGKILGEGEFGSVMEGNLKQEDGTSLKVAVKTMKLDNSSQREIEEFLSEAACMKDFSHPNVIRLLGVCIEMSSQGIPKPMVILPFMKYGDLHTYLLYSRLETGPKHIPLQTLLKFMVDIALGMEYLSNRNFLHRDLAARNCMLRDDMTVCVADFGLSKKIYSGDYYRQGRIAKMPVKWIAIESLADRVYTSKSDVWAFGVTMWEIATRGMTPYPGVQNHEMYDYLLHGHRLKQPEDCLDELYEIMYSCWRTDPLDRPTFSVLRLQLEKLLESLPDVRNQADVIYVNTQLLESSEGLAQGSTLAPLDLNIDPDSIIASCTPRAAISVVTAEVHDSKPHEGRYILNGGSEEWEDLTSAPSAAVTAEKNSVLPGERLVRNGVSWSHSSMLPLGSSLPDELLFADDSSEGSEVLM
- EXPERIMENT SUMMARY: phosphorylation enrichment, bacterial display (enrichment ratio); higher = better substrate or ligand; peptides without Tyr show the background;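 further: 11-residue human phosphosite peptides and single-mutation variants displayed on the E. coli surface, counted by deep sequencing, each peptide's frequency after selection divided by its frequency in the unselected input library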;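 further: frequency after pTyr selection over input frequency; kinase dosed for 20-30% of maximal phosphorylation in three min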
The sequences listed here are annotated with their phosphorylation enrichment.
EXPERIMENTAL ENDPOINT: phosphorylation enrichment

>>> print(df.to_string())
                               seq_text       experimental_endpoint  test_value
 0     SSLMKYQQNVS [EGFEM1P_Y160_P157L]  phosphorylation enrichment       0.343
 1              NTYEKYWPFYQ [GATM_Y103]  phosphorylation enrichment         5.5
 2        SVTCTYSPDLN [TP53_Y126_A129D]  phosphorylation enrichment       0.437
 3           QRRFVYFFSFL [PTEN_Y176_YF]  phosphorylation enrichment       0.618
 4  ADFFDYGRGLS [KHDRBS3_Y304_H306R_YF]  phosphorylation enrichment       0.369
 5          GNFSGYDDAWD [POLR1C_Y36_YF]  phosphorylation enrichment        0.48
 6             NSGFFYKTAEE [CCT6B_Y250]  phosphorylation enrichment       0.435
 7           LYSDHYSPSGR [TMPRSS12_Y23]  phosphorylation enrichment        28.8
 8       AVLSLYASGCT [ACTA2_Y145_R149C]  phosphorylation enrichment       0.432
 9   ASMAKYFASGI [ACADSB_Y372_E376G_YF]  phosphorylation enrichment       0.407
10            GIVEDYRPPFY [ACVRL1_Y421]  phosphorylation enrichment       0.406
11             SLYPGYNFRYA [P2RX7_Y291]  phosphorylation enrichment       0.399
12              PCPANYFAFKI [FAM3D_Y65]  phosphorylation enrichment        12.1
13       ILDEAYVMAGA [ERBB2_Y772_V777A]  phosphorylation enrichment       0.507
14            FIPSNYVAEDR [FRK_Y104_YF]  phosphorylation enrichment       0.399
15            ESSKAYERALS [TTC37_Y1074]  phosphorylation enrichment       0.417
16     TLNVRHESVQA [CEACAM7_Y236_Y236H]  phosphorylation enrichment       0.348
17     VERRVYAEDPF [PCCA_Y401_C398R_YF]  phosphorylation enrichment       0.384
18    HFGCVYFGTLL [MET_Y1093_H1094Y_YF]  phosphorylation enrichment       0.528
19              KLFFHYNPKLC [INSR_Y457]  phosphorylation enrichment       0.383
20       STLEVYRCHPP [IL21R_Y317_S318R]  phosphorylation enrichment       0.364
21        TRDVNYGWTIR [MT-CYB_Y75_I78T]  phosphorylation enrichment       0.495
22       ITVPAYFNDLQ [HSPA9_Y196_S200L]  phosphorylation enrichment       0.431
23        SVTCTYSSALN [TP53_Y126_P128S]  phosphorylation enrichment       0.458
24             GCRSKYVGLWG [KCNQ1_Y184]  phosphorylation enrichment       0.463
25        SVTCTHSPALN [TP53_Y126_Y126H]  phosphorylation enrichment         0.4
26      EWCSPYGLTPR [GRIN3B_Y601_R598C]  phosphorylation enrichment        1.01
27        SSYPDYLAAVD [GLB1_Y154_D151Y]  phosphorylation enrichment       0.415
28             PVGDAYKKKGL [NMNAT1_Y55]  phosphorylation enrichment       0.874
29           TSSAIYMNLAS [GATAD2B_Y317]  phosphorylation enrichment        8.39
30       GEFHVYRHLRW [PRKRIP1_Y82_R87W]  phosphorylation enrichment       0.345
31           KQLFAYKMLMA [TMC2_Y209_YF]  phosphorylation enrichment       0.386
32       EERNPYYSSAR [MCCC2_Y520_G517R]  phosphorylation enrichment       0.468
33             CTNPRYLAAGS [RABL3_Y185]  phosphorylation enrichment       0.415
34    VTSLKYSTPPF [BRIP1_Y916_S919P_YF]  phosphorylation enrichment       0.457
35            FPDFVYKRIKA [DPYSL2_Y479]  phosphorylation enrichment       0.377
36       EKKDIYKAGEQ [CFH_Y1008_V1007I]  phosphorylation enrichment       0.362
37            FEKNVYVDKNL [PTCHD3_Y688]  phosphorylation enrichment       0.411
38      PEADKYCLTFA [FGG_Y300_R301C_YF]  phosphorylation enrichment       0.758
39               SGVNKYSTAFG [GJB3_Y16]  phosphorylation enrichment       0.425
40     FDEFRYRSFIK [CFTR_Y517_V520F_YF]  phosphorylation enrichment       0.422
41          TVFENYVADIK [RHOA_Y42_E47K]  phosphorylation enrichment       0.442
42              KSEKVYTRHGV [FLOT1_Y56]  phosphorylation enrichment       0.427
43             CASQLYPRHKH [DCTN4_Y263]  phosphorylation enrichment       0.428
44              TIMTDYNPNYC [ALK_Y1092]  phosphorylation enrichment         0.6
45    MALDIYRASFF [ALK_Y1278_R1275L_YF]  phosphorylation enrichment       0.776
46   GIVEDYRPPVF [ACVRL1_Y421_F425V_YF]  phosphorylation enrichment       0.445
47    FQRITYHNWRH [PDE6B_Y556_R552Q_YF]  phosphorylation enrichment        0.41
48        YDEYRYRSFIK [CFTR_Y517_V520F]  phosphorylation enrichment       0.518
49        SVTCTYSPALS [TP53_Y126_N131S]  phosphorylation enrichment        0.42
50         IKKLIYVYLVI [JAGN1_Y42_H44Y]  phosphorylation enrichment       0.427
51       DASENYFVMDS [TMEM240_Y77_T80M]  phosphorylation enrichment        1.92
52        DNACQYMLTDR [MYH7_Y164_Y162C]  phosphorylation enrichment       0.532
53            GFDHSYFFIAT [ESD_Y262_YF]  phosphorylation enrichment        0.67
54       MSRDVYSIDYY [NTRK2_Y702_T704I]  phosphorylation enrichment        7.16
55              TEQDPYNNIVR [MMUT_Y364]  phosphorylation enrichment       0.451
56      VKFLGYPPPEI [KDR_Y357_A352V_YF]  phosphorylation enrichment       0.402
